tested on: M14; test: NCI tumour cell line growth inhibition, 48 h
The source made the active and inactive calls. No stated cut-off is given here; in the data, active = GI50 up to about 1.1 µM and inactive = higher.

molecule	system_name	GI50
C/C=C1/CN2CCC3(O)c4ccccc4N4C=C(C(=O)OC)C1CC2C43O (stereo not drawn)	M14	> 100 µM (inactive)
c1ccc(COCC2OC3c4ccccc4COC3C2OCc2ccccc2)cc1 (stereo not drawn)	M14	> 100 µM (inactive)
C/C(CC(=O)Nc1ccc(Cl)cc1)=N\NC(=O)C[n+]1ccccc1	M14	> 100 µM (inactive)

###

test system: DU-145; test: NCI tumour cell line growth inhibition, 48 h
Activity calls are given as the source filed them. No stated cut-off is given here; in the data, active = GI50 up to about 1.1 µM and inactive = higher.
Outcomes: active, inactive

compound	system_name	class_assignment
O=C1NC(=O)c2ccc([N+](=O)[O-])c3cccc1c23	DU-145	inactive
CC(=O)OCC1OC(NC(=S)CCSc2nc3ccccc3c(=O)n2-c2ccccc2)C(OC(C)=O)C(OC(C)=O)C1OC(C)=O (stereo not given)	DU-145	inactive
O=C(O)C1(Cc2ccc3c(c2)CCC3)Cc2ccccc2C1	DU-145	inactive
C=CCNC(=O)CN(CC(=O)O)C1CCCCC1N(CC(=O)O)CC(=O)O (stereo not given)	DU-145	inactive
CCOC(=O)N/N=C(\CC)NO	DU-145	inactive
Cc1ccc(N/C(Sc2ccccc2)=C(/C(Cl)=C(Cl)Cl)[N+](=O)[O-])c(C)c1	DU-145	inactive
C/C1=C\CC/C(C)=C/C=C(/C(C)C)CC/C(C(=O)O)=C/CC1	DU-145	inactive
COc1ccc2c(c1OC)OC[C@@H](C1=CC(=O)C=C(O)C1=O)C2	DU-145	inactive
O=C(NNC(=O)c1ccccc1O)c1ccccc1O	DU-145	active
COc1cc(/C=N/NC(=O)c2c(Cl)c(Cl)c(Cl)c(Cl)c2-c2nc3cc(C(=O)c4ccccc4)ccc3[nH]2)ccc1O	DU-145	inactive
